# EC50 values compiled below
- System: rgRSV224 virus
- experiment.notes: microbe, parasite or virus in culture
- Type: cell-based, respiratory syncytial virus (RSV)
- particulars: Table 2; rgRSV224 in HeLa cells, MOI 0.02, three days post-virus exposure, GFP expression; read-out: WT activity EC50
Kindly provide the numeric value in nM only, without the unit symbol.

What EC50 value was documented for this molecule, O=c1n(Cc2cc3cc(Cl)ncc3n2CCCC(F)(F)F)c2cnccc2n1C1CC1 [Compound P12] ?
2.38

More entries:
What EC50 value was documented for this molecule, O=c1n(Cc2c(Cl)c3cnccc3n2CCCC(F)(F)F)c2cnccc2n1C1CC1 [Compound P22] ?
5

Repeat for the following molecule: CC(C)CCn1c(Cn2c(=O)n(C3COC3)c3ccncc32)cc2nc(Cl)ccc21 [Compound P34]
35

Repeat for the following molecule: O=c1n(Cc2cc3cc(Cl)ncc3n2CCCC(F)(F)F)c2cc(F)ccc2n1CC(F)(F)F [Compound P14]
17.2

Repeat for the following molecule: O=c1n(Cc2cc3cc(Cl)ncc3n2CCCCF)c2cnccc2n1CC(F)(F)F [Compound P15]
1.58

Repeat for the following molecule: O=c1n(Cc2c(F)c3cnccc3n2CCCC(F)(F)F)c2cnccc2n1C1CC1 [Compound P23]
29.3

Repeat for the following molecule: O=c1n(Cc2cc3nc(Cl)ccc3n2CCCCO)c2cnccc2n1CC(F)(F)F [Compound P50]
10.1

Repeat for the following molecule: CS(=O)(=O)CCCn1c(Cn2c(=O)n(C3CC3)c3ccc(F)cc32)cc2nc(Cl)ccc21 [Compound P37]
22.3

Repeat for the following molecule: CS(=O)(=O)CCCn1c(Cn2c(=O)n(C3COC3)c3ccncc32)cc2nc(Cl)ccc21 [Compound P36]
6.81

----------
- Test system: rgRSV224 virus
- experiment.notes: microbe, parasite or virus in culture
- Format: cell-based, respiratory syncytial virus (RSV)
- particulars: Table 2; selectivity index, CC50 (HeLa cytotoxicity) / EC50 (rgRSV224)
# SI CC50/EC50 values compiled below

What SI CC50/EC50 value was documented for this molecule, O=c1n(Cc2cc3cc(Cl)ncc3n2CCCCF)c2cnccc2n1CC(F)(F)F [Compound P15] ?
51626

----------
- experiment.notes: Cytotoxicity in HeLa cells, ATP content (ATPlite kit)
- Format: cell-based
- particulars: human, Table 1, three days incubation, read-out: Toxicity CC50
- Procedure: Black 96-well clear-bottom microtiter plates (Corning, Amsterdam, The Netherlands) were filled in duplicate using a customized robot system with serial 4-fold dilutions of compound in a final volume of 50 μl culture medium [RPMI medium without phenol red, 10% FBS, 0.04% gentamycin (50 mg/mL) and 0.5% DMSO]. […] Three days post-virus exposure, viral replication was quantified by measuring GFP expression in the cells by a MSM laser microscope (Tibotec, Beerse, Belgium). […]
property.measured: CC50 at 3 days

What CC50 at 3 days value was documented for this compound, O=c1n(Cc2cc3ccncc3n2CCCCO)c2cnccc2n1C1CC1 ?
> 9.84 µM

Repeat for the following compound: O=c1n(Cc2cc3ncccc3n2CCCCO)c2cnccc2n1C1CC1
> 98.4 µM

Repeat for the following compound: O=c1n(Cc2cc3cnccc3n2CCCCO)c2cnccc2n1C1CC1 [Compound P1]
> 98.4 µM

Repeat for the following compound: O=c1n(Cc2cc3nc(Cl)ccc3n2CCCCO)c2cnccc2n1C1CC1 [Compound P2]
> 9.84 µM

Repeat for the following compound: CC(C)CCn1c(Cn2c(=O)n(C3CC3)c3ccncc32)cc2cccnc21
> 98.4 µM

More entries:
What CC50 at 3 days value was documented for this compound, CC(C)(C)C(=O)OCCCCn1c(Cn2c(=O)n(C3CC3)c3ccncc32)cc2nc(O)ccc21 ?
> 9.84 µM

Repeat for the following compound: COc1ccc2c(cc(Cn3c(=O)n(C4CC4)c4ccncc43)n2CCCCO)n1
> 9.84 µM

Repeat for the following compound: CC(C)CCn1c(Cn2c(=O)n(C3CC3)c3ccncc32)cc2ncccc21
68 µM

Repeat for the following compound: O=c1n(Cc2cc3nc(O)ccc3n2CCCCO)c2cnccc2n1C1CC1
> 9.84 µM

----------
- System: rgRSV224 virus
- experiment.notes: microbe, parasite or virus in culture
- Format: cell-based, respiratory syncytial virus (RSV)
- particulars: Table 2; rgRSV224 in HeLa cells, MOI 0.02, three days post-virus exposure, GFP expression; read-out: WT activity EC50
property.measured: pEC50
Please express pEC50 as -log10 of the molar concentration.

Example molecules with recorded pEC50:
# returns recorded pEC50 (system: rgRSV224 virus) for CC(C)CCn1c(Cn2c(=O)n(C3CC3)c3ccccc32)cc2nc(Cl)ccc21
6.89

Repeat for the following molecule: O=c1n(Cc2cc3nc(Cl)ccc3n2CCCC(F)(F)F)c2cnccc2n1C1CC1
8.57

More entries:
# returns recorded pEC50 (system: rgRSV224 virus) for O=c1n(Cc2cc3nc(Cl)ccc3n2CCCCF)c2cnccc2n1CC(F)(F)F
8.13

Repeat for the following molecule: Cc1c(Cn2c(=O)n(C3CC3)c3ccncc32)n(CCCC(F)(F)F)c2ccncc12
8.87

Repeat for the following molecule: O=c1n(Cc2cc3cnccc3n2CCCCF)c2cnccc2n1C1CC1
9.27

Repeat for the following molecule: O=c1n(Cc2cc3cc(Cl)ncc3n2CCCC(F)(F)F)c2cc(F)ccc2n1C1CC1
7.40

Repeat for the following molecule: CS(=O)(=O)CCCn1c(Cn2c(=O)n(CC(F)(F)F)c3ccc(F)cc32)cc2cnccc21
9.21

----------
- System: rgRSV224 virus
- experiment.notes: microbe, parasite or virus in culture
- Format: cell-based, respiratory syncytial virus (RSV)
- particulars: Table 2; rgRSV224 in HeLa cells, MOI 0.02, three days post-virus exposure, GFP expression; read-out: WT activity EC50
# EC50 values compiled below

What EC50 value was documented for this compound, O=c1n(Cc2cc3nc(Cl)ccc3n2CCCC(F)(F)F)c2cnccc2n1CC(F)(F)F ?
2.1 nM

More entries:
What EC50 value was documented for this compound, O=c1n(Cc2cc3nc(C(F)(F)F)ccc3n2CCCCF)c2cnccc2n1C1CC1 ?
132 nM

Repeat for the following compound: O=c1n(Cc2c(I)c3cnccc3n2CCCC(F)(F)F)c2cnccc2n1C1CC1
2.35 nM

Repeat for the following compound: O=c1n(Cc2cc3nc(Cl)ccc3n2CCCCF)c2cc(F)ccc2n1CC(F)(F)F
138 nM

----------
- System: rgRSV224 virus
- experiment.notes: microbe, parasite or virus in culture
- Assay type: cell-based, respiratory syncytial virus (RSV)
- particulars: Table 2; rgRSV224 in HeLa cells, MOI 0.02, three days post-virus exposure, GFP expression; read-out: WT activity EC50
property.measured: EC50 (nM)
Kindly provide the numeric value in nM only, without the unit symbol.

Example molecules with recorded EC50:
What EC50 value was documented for this molecule, O=c1n(Cc2cc3nc(Cl)ccc3n2CCCC(F)(F)F)c2ccccc2n1C1CC1 ?
69.2

Repeat for the following molecule: CC(C)CCn1c(Cn2c(=O)n(C3CC3)c3ccncc32)cc2cnccc21
0.28

Repeat for the following molecule: CS(=O)(=O)CCCn1c(Cn2c(=O)n(CC(F)(F)F)c3ccncc32)cc2nc(Cl)ccc21
0.84

Repeat for the following molecule: O=c1n(Cc2cc3ncccc3n2CCCCF)c2cnccc2n1C1CC1
42.9

Repeat for the following molecule: N#CCCCn1c(Cn2c(=O)n(C3CC3)c3ccncc32)cc2nc(Cl)ccc21
15.8

More entries:
What EC50 value was documented for this molecule, O=c1n(Cc2cc3cc(Cl)ncc3n2CCCC(F)(F)F)c2cnccc2n1CC(F)(F)F ?
0.938

Repeat for the following molecule: CC(C)CCn1c(Cn2c(=O)n(C3CC3)c3ccncc32)cc2nc(Cl)ccc21
7.77

Repeat for the following molecule: CC(C)CCn1c(Cn2c(=O)n(C3CC3)c3ccc(F)cc32)cc2nc(Cl)ccc21
32.8

----------
- Test system: rgRSV224 virus
- experiment.notes: microbe, parasite or virus in culture
- Assay type: cell-based, respiratory syncytial virus (RSV)
- particulars: Table 2; selectivity index, CC50 (HeLa cytotoxicity) / EC50 (rgRSV224)
# SI CC50/EC50 values compiled below

Example compounds with recorded SI CC50/EC50:
What SI CC50/EC50 value was documented for this compound, O=c1n(Cc2cc3cc(Cl)ncc3n2CCCC(F)(F)F)c2cnccc2n1C1CC1 [Compound P12] ?
>10526

Repeat for the following compound: CS(=O)(=O)CCCn1c(Cn2c(=O)n(C3CC3)c3ccc(F)cc32)cc2nc(Cl)ccc21 [Compound P37]
>4479

Repeat for the following compound: O=c1n(Cc2cc3cc(Cl)ncc3n2CCCC(F)(F)F)c2cc(F)ccc2n1C1CC1 [Compound P16]
>2730

Repeat for the following compound: CC(C)CCn1c(Cn2c(=O)n(C3CC3)c3ccc(F)cc32)cc2nc(Cl)ccc21 [Compound P38]
1510

More entries:
What SI CC50/EC50 value was documented for this compound, O=c1n(Cc2cc3nc(Cl)ccc3n2CCCC(F)(F)F)c2cnccc2n1C1CC1 [Compound P40] ?
>37045

Repeat for the following compound: O=c1n(Cc2cc3ncccc3n2CCCCF)c2cnccc2n1C1CC1 [Compound P45]
>2332

Repeat for the following compound: CC(C)CCn1c(Cn2c(=O)n(C3COC3)c3ccncc32)cc2nc(Cl)ccc21 [Compound P34]
>2856

Repeat for the following compound: O=c1n(Cc2cc3nc(Cl)ccc3n2CCCCF)c2cnccc2n1CC(F)(F)F [Compound P48]
10490
